Entries and their measured VQIINK Inhibition IC50 follow.
target or test system: Ac-VQIINK-NH2 (SEQ ID NO: 23) (N-terminal acetyl (Ac); C-terminal amide (NH2))
assay details: cell-based or functional assay
Square brackets hold non-standard residues; d marks the D form. Ends that are not written are not given here.

{"binder": "[dW][dQ][dL][dQ][dV][dR][dW] [wqlqvrw]", "VQIINK Inhibition IC50, µm": 2.74}
{"binder": "[dA][dK][dI][dR][dI][dH][dY][dH] [akirihyh]", "VQIINK Inhibition IC50, µm": 8.93}
{"binder": "[dF][dE][dL][dK][dL][dR][dW][dH] [felklrwh]", "VQIINK Inhibition IC50, µm": 1.03}
{"binder": "[dW][dK][dV][dW][dV][dR]G[dW] (not fully specified (residue 7); printed as wkvwvrgw) [wkvwvrgw]", "VQIINK Inhibition IC50, µm": 2.17}
{"binder": "[dK][dV][dR][dW][dW][dW][dR][dL] [kvrwwwrl]", "VQIINK Inhibition IC50, µm": 15.2}
{"binder": "[dW][dR][dL][dW][dI][dH][dW][dW] [wrlwihww]", "VQIINK Inhibition IC50, µm": 4.07}
{"binder": "[dW][dR][dL][dD][dV][dR][dW] [wrldvrw]", "VQIINK Inhibition IC50, µm": 2.42}
{"binder": "[dW][dR][dL][dR][dI][dE][dW] [wrlriew]", "VQIINK Inhibition IC50, µm": 1.98}
{"binder": "[dF][dR][dI][dR][dI][dH][dH][dW] [fririhhw]", "VQIINK Inhibition IC50, µm": 0.82}
{"binder": "[dR][dL][dK][dI][dR][dW] [rlkirw]", "VQIINK Inhibition IC50, µm": 10.9}
{"binder": "[dL][dK][dV][dR][dW][dW][dW][dR] [lkvrwwwr]", "VQIINK Inhibition IC50, µm": 3.34}
{"binder": "[dF][dR][dI][dR][dL][dR][dW] [frirlrw]", "VQIINK Inhibition IC50, µm": 2.58}
{"binder": "[dW][dN][dL][dK][dV][dN][dW] [wnlkvnw]", "VQIINK Inhibition IC50, µm": 3.5}
{"binder": "[dW][dR][dA][dR][dI][dH][dW] [wrarihw]", "VQIINK Inhibition IC50, µm": 19.1}
{"binder": "[dW][dR][dL][dN][dV][dN][dW] [wrlnvnw]", "VQIINK Inhibition IC50, µm": 1.38}
{"binder": "[dL][dK][dI][dR][dI][dL][dY][dH] [lkirilyh]", "VQIINK Inhibition IC50, µm": 1.46}
